reportedEndpoint: pKi
Notebook: values listed as pKi are -log10 of the concentration (mol/L).

Reported 5-hydroxytryptamine receptor 1A (Homo sapiens) pKi for item COc1ccc(OC)c(C2CCN(Cc3cnn(-c4ccccc4F)c3C)C2)c1 (stereo unspecified) was 6.99

###

- procedureDetails: Solubility of the compound
- Assay type: physicochemical
reportedEndpoint: solubility (µg/mL)
Return type: number; implicit unit µg/mL.

# solubility of `COc1cccc(F)c1OC1CN(Cc2cnn(-c3ccccc3)c2C)C1` = 79

###

- experimentalSystem: hERG (KCNH2) (Homo sapiens)
- Sequence (Q12809 whole entry): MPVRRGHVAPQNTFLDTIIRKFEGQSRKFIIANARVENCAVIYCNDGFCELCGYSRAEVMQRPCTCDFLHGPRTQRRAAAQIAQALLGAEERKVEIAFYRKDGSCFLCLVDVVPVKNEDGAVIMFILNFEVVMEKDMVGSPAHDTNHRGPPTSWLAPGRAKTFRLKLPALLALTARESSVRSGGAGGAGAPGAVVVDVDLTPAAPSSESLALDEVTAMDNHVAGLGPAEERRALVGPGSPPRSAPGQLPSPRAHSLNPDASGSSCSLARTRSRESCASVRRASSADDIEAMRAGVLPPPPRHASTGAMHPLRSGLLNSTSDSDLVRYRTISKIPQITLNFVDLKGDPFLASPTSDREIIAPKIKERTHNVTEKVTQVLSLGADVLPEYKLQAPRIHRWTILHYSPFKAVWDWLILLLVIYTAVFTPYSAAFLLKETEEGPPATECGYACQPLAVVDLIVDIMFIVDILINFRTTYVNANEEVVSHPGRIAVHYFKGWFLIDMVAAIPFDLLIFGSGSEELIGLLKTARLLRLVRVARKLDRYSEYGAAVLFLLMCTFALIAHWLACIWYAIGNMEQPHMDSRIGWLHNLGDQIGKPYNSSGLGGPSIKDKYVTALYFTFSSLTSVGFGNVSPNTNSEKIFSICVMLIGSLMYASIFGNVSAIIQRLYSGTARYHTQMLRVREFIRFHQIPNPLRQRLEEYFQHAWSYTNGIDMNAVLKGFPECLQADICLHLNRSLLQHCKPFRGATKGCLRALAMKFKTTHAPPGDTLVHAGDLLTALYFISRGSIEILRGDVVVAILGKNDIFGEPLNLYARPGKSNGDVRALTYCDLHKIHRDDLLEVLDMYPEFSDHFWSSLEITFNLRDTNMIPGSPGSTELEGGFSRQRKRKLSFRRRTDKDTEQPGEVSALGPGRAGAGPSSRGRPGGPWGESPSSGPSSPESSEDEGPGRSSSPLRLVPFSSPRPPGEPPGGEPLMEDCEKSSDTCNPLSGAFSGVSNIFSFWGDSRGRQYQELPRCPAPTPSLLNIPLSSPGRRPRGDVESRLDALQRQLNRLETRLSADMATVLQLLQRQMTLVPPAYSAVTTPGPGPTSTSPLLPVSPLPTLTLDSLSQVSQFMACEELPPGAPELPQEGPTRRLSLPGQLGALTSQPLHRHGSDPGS
- procedureDetails: Inhibition of human ERG at 3 uM
reportedEndpoint: inhibition at 3 µM (%)
Return type: number; implicit unit %.

# inhibition at 3 µM of `COc1cccc(F)c1OC1CN(Cc2cnn(-c3ccccc3)c2C)C1` = 56

###

- experimentalSystem: D(1A) dopamine receptor (Homo sapiens, UniProt P21728)
- Sequence (P21728 whole entry): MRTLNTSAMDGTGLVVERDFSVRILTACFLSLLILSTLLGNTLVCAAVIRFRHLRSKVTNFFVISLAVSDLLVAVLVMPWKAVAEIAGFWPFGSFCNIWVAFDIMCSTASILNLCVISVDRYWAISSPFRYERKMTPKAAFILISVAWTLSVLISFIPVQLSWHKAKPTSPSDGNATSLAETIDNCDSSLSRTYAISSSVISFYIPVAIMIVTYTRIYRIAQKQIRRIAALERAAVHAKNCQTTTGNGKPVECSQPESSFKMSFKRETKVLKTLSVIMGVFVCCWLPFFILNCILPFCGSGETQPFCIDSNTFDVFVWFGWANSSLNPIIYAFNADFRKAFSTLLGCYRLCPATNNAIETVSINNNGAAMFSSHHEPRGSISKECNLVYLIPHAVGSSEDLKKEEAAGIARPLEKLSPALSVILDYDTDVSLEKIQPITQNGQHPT
- procedureDetails: Binding affinity to dopamine D1 receptor
reportedEndpoint: Ki

# Ki of COc1ccc(OC)c(C2CCN(Cc3cnn(-c4ccccc4F)c3C)C2)c1 (stereo unspecified) = > 1000 nM

###

- procedureDetails: Metabolic stability in rat liver microsomes assessed as half life
- Format: ADME, Microsome
reportedEndpoint: half-life (min)
Return type: number; implicit unit min.

# half-life of `COc1cccc(F)c1OC1CN(Cc2cnn(-c3ccccc3)c2C)C1` = 9.7

###

Protein target, amino acids: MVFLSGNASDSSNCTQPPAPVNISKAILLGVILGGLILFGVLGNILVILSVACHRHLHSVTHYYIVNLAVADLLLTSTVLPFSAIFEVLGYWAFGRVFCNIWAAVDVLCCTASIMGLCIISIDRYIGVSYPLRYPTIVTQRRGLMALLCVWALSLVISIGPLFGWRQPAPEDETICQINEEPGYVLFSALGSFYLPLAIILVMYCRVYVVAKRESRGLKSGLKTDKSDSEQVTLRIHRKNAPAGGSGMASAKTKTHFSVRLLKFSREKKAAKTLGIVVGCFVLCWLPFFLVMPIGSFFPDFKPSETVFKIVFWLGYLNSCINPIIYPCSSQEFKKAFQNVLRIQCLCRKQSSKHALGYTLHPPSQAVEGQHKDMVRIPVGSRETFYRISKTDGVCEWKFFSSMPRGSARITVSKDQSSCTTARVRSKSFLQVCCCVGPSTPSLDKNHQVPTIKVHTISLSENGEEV
reportedEndpoint: pKi
Notebook: values listed as pKi are -log10 of the concentration (mol/L).

# pKi of `COc1cccc(F)c1OC1CN(Cc2cnn(-c3ccccc3)c2C)C1` = 7.12

###

- procedureDetails: Metabolic stability in human liver microsomes assessed as half life
- Type: ADME, Microsome
reportedEndpoint: half-life (min)
Return type: number; implicit unit min.

# half-life of `COc1cccc(F)c1OC1CN(Cc2cnn(-c3ccccc3)c2C)C1` = 30.2

###

- experimentalSystem: Protein smoothened (Homo sapiens)
- Sequence (Q99835 whole entry): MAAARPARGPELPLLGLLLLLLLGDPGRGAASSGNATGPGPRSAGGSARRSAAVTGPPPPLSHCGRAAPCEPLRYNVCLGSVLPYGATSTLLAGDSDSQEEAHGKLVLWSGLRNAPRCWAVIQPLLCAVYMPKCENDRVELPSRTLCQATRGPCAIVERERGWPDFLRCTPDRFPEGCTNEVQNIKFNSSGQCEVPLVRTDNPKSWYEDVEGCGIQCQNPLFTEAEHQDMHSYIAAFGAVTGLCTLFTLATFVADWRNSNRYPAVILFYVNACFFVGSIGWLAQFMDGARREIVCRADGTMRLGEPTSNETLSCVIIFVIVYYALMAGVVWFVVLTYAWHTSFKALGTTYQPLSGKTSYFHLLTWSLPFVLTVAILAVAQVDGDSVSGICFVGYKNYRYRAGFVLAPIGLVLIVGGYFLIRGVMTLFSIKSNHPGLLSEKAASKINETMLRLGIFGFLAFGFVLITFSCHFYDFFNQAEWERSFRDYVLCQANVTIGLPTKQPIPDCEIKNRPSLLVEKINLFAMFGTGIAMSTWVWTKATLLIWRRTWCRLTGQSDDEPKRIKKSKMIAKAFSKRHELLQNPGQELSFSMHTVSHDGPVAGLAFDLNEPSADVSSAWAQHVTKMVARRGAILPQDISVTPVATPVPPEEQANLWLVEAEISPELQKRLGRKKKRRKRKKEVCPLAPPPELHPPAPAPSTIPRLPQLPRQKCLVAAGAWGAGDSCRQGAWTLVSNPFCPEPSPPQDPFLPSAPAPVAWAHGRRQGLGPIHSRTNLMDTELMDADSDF
- procedureDetails: Inhibition of Smoothened transfected in HEK293 cells by binding assay
- Type: cell-based
Give measured IC50 for each item. Keep answers brief.
Return type: number; implicit unit µM.

# IC50 of `COc1cccc(F)c1OC1CN(Cc2cnn(-c3ccccc3)c2C)C1` = 0.124

# IC50 of `COc1ccc(N2CCN(Cc3cnn(-c4ccccc4)c3C)CC2)cc1` = 0.126

# IC50 of `COc1cccc(N2CCN(Cc3c(C)nn(-c4ccc(F)cc4)c3C)CC2)c1` = 0.02

# IC50 of `COc1cccc(N2CCN(Cc3cnn(-c4ccc(F)cc4)c3C)CC2)c1` = 0.005
